- Tested on: Escherichia coli
- assay.method.text: In Vitro antibacterial activity against (Ec TEM2) Escherichia coli […] strain
- Format: functional
Attribute: MIC

Respond only with MIC recorded for C[C@H](C(N)=O)N(C)CC1=C(C(=O)O)N2C(=O)[C@H]([C@@H](C)O)[C@H]2S1
0.25 µg/mL

Further cases:
Return value of MIC for input C[C@@H](O)[C@H]1C(=O)N2C(C(=O)O)=C(CN(C)CC(=O)NCC(N)=O)S[C@H]12 , no commentary.
0.5 µg/mL

Give the measured MIC for CCCCOC(=O)CN(C)CC1=C(C(=O)O)N2C(=O)[C@H]([C@@H](C)O)[C@H]2S1
> 64 µg/mL

Check the records and state MIC for C[C@@H](O)[C@H]1C(=O)N2C(C(=O)O)=C(CN(C)CC(N)=O)S[C@H]12
0.5 µg/mL
